targetOrTestSystem: JAK2 tyrosine kinase (Homo sapiens, UniProt O60674)
Construct: purchased Carnabioscience Co
Sequence (O60674 whole entry): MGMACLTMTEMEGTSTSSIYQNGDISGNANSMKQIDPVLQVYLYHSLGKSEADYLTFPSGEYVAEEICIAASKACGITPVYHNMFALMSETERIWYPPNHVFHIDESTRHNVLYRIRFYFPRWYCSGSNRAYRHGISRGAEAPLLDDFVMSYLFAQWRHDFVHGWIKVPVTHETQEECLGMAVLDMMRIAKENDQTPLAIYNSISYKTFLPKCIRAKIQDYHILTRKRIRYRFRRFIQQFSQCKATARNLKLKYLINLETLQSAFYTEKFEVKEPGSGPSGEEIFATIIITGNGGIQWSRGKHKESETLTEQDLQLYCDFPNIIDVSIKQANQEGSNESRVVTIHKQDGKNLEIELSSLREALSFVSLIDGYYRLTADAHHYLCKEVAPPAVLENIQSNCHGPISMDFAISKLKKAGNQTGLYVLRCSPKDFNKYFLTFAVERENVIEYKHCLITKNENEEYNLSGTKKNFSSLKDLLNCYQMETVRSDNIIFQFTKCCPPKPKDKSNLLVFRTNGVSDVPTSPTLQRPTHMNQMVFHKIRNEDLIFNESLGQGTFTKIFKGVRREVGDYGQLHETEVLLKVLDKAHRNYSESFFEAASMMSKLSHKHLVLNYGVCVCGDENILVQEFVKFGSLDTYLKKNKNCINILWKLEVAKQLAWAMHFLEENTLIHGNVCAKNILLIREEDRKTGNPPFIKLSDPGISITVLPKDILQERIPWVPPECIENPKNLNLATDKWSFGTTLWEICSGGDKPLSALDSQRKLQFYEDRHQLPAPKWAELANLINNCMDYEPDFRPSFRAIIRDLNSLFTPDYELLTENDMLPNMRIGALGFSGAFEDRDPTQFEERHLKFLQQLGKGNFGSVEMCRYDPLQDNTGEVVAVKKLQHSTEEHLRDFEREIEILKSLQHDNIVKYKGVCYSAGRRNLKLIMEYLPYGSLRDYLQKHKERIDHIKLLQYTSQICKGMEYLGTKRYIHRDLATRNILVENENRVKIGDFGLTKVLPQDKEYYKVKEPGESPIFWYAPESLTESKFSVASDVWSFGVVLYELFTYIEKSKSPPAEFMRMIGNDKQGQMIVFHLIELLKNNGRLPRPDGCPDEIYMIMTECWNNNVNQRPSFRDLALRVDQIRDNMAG
methodNotes: Test 1: inhibitory activity to JAK2 tyrosine kinase (ELISA)
Format: biochemical
studyConditions: 25 μM ATP in substrate solution, 30° C. for 1 hour, n=2
pIC50: −log10 of the molar value. Structures can show the parent of a compound that is named as a salt.
recordedEndpoint: pIC50

What pIC50 appears in the records for this compound with JAK2 tyrosine kinase (Homo sapiens, UniProt O60674)? C[C@H](Nc1nc(Nc2cnccn2)cc(N2CCCC(C(N)=O)C2)n1)c1ccc(F)cc1 (some centres unmarked) [Example 63, hydrochloride]
9.00

a. CNC1CN(c2cc(Nc3cnccn3)nc(N[C@@H](C)c3ccc(F)cc3)n2)C1
b. CC(C)[C@@H](CO)Nc1cc(Nc2cnccn2)nc(N[C@@H](C)c2ccc(F)cc2)n1 [Example 99, hydrochloride]
When the recorded pIC50 values are compared, which is smaller: that of a or that of b ? Field: selected label. Fill in the label of the entry you choose.
b
(b: 8.62, a: 8.82)

A. C[C@H](Nc1nc(Nc2cnccn2)cc(-c2cccc(S(C)(=O)=O)c2)n1)c1ccc(F)cc1 [Example 35, hydrochloride]
B. CC(=O)NCCNc1cc(Nc2cnccn2)nc(N[C@@H](C)c2ccc(F)cc2)n1 [Example 78, hydrochloride]
C. C[C@H](Nc1cc(N2CC(N3CCC(O)CC3)C2)cc(Nc2cnccn2)n1)c1ccc(F)cc1
rank_up(items): orders items by reported pIC50 in ascending numerical order. The reply should contain the labels ordered as requested.
C, A, B

a. C[C@H](Nc1nc(Nc2cnccn2)cc(-c2cc[nH]c2)n1)c1ccc(F)cc1
b. C[C@H](Nc1nc(Nc2cnccn2)cc(N2CC(O)(C3CC3)C2)n1)c1ccc(F)cc1 [Example 200, hydrochloride]
When the recorded pIC50 values are compared, which is smaller: that of a or that of b ? Field: selected label. Fill in the label of the entry you choose.
a
